test.target: T1, Murine APRIL (mouse, UniProt Q9D777 105-241, limits assumed)
T1 sequence (looked up): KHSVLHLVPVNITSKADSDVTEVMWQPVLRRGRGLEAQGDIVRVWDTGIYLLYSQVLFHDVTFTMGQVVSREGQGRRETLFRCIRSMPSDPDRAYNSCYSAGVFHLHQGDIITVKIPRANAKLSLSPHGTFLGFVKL
protocol.summary: shotgun scan, phage display
For each record, write down the corresponding F (APRIL).
Give bare numbers.

SLSCRKEPGKFYDHLLRDCISCASICGQHPKQCAYFCENKLR (receptor, phage library variant, format as m9) [TACI_d2 Q75P] :: 1.1

Moving on to another binder below.
Input: Which F (APRIL) value is on record for SLSCRKEQGKFYDHLLRDCIACASICGQHPKQCAYFCENKLR (receptor, phage library variant, format as m9) [TACI_d2 S88A] ?
Output: 3.8
